Catalogue of pKd values
Molecular target: UniProt P9WKE3
Sequence (P9WKE3 1-326): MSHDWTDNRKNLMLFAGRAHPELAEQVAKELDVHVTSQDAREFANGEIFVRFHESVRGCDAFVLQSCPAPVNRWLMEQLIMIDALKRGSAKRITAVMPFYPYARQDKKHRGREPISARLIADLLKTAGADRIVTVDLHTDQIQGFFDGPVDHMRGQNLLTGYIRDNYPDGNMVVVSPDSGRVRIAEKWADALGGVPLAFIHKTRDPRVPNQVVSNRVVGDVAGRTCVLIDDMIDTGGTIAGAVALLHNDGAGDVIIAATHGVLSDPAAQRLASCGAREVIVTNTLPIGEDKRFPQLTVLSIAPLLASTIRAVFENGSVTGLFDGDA
Experiment: Intrinsic tryptophan fluorescence
Format: binding
Settings: read-out: Kd (ITF); ligand alone, 70 µM Mt-PrsA
pKd is defined as minus the log10 of a concentration measured in mol/L.

Nc1ncnc2c1ncn2[C@@H]1O[C@H](COP(=O)(O)OP(=O)(O)OP(=O)(O)O)[C@@H](O)[C@H]1O | 4.55
Nc1ncnc2c1ncn2C1OC(COP(=O)(O)OP(=O)(O)NP(=O)(O)O)C(O)C1O (stereo not drawn) [AMPPNP, 5'-adenylyl-β,γ-imidodiphosphate] | 4.51

Next up:
Problem: I am curious: what pKd value has been reported for Nc1ncnc2c1ncn2[C@@H]1O[C@H](COP(=O)(O)OP(=O)(O)O)[C@@H](O)[C@H]1O ?
Result: 3.29

* * *

biological target: Mt-PrsA (Mycobacterium tuberculosis, UniProt P9WKE3); assay: Intrinsic tryptophan fluorescence; type: binding; conditions: read-out: Kd for AMPPNP in the presence of R5P; 5 mM R5P
measurement_name: Kd

Problem: I am curious: what Kd value has been reported for Nc1ncnc2c1ncn2C1OC(COP(=O)(O)OP(=O)(O)NP(=O)(O)O)C(O)C1O (stereo not drawn) [AMPPNP, 5'-adenylyl-β,γ-imidodiphosphate] ?
Result: 28.2 µM
